tested on: platelet aggregation induced by ADP; test: Test of inhibitory effect of compounds on platelet aggregation in rats (ex vivo, ADP-induced, after intragastric administration); set-up: species or system SD rats; details: platelet aggregation, rats, intragastric 0.5 mg/kg, control = 100%
Measured parameter: Inhibition rate (%)
Give bare numbers, in %.

What value of Inhibition rate (%) has been recorded for this entry: CC(=O)Oc1cc2c(s1)CCN(C(C(=O)C1CC1)c1ccccc1F)C2 (stereo not shown) [Prasugrel, reference compound] 37.8

C/C=C/C(=O)Oc1cc2c(s1)CCN([C@H](C(=O)OC)c1ccccc1Cl)C2 [Compound I-1] ? 22.4

CC/C=C/C(=O)Oc1cc2c(s1)CCN([C@H](C(=O)OC)c1ccccc1Cl)C2 [Compound I-4] ? 26.2

Now for a further compound.
What value of Inhibition rate (%) has been recorded for this entry: CCC/C=C/C(=O)Oc1cc2c(s1)CCN([C@H](C(=O)OC)c1ccccc1Cl)C2 [Compound I-5] 19.5
